- System: EKVX NSCLC
- Assay Text: NCI tumour cell line growth inhibition, 48 h
Measured TGI values are reported for all entries that follow.
Report the figure in µM without appending any unit label.

Please review the entries below; each comes with its answer.
INSERT INTO assay_data (compound, measured_quantity, value_observed) VALUES
  ('Cc1cc(S(=O)(=O)Nc2nnc(-c3ccco3)c(-c3ccco3)n2)c(SCc2ccccc2)cc1Cl', 'TGI', 37.6),
  ('N#Cc1c(-c2cccc(Br)c2)cc(-c2ccc(Cl)cc2)nc1N', 'TGI', 56.7),
  ('COC(=O)[C@H](C)[C@H]1CC[C@@](C)([C@H]2CC3C(C)(C)[C@H]4CCC(C)=C[C@H]4C[C@@]3(C)O2)OO1 (some centres undefined)', 'TGI', 27.6),
  ('CCN(CC)c1ccc2[nH]c3c(C(N)=O)cc(=O)c(=O)c=3oc2c1', 'TGI', 15.7);

Ask: Could you tell me which TGI is on file for "O=c1oc2ccccc2c(Cl)c1Cl" ?
Result: 27.1

====

- System: TK-10 renal
- Assay Text: NCI tumour cell line growth inhibition, 48 h
Where a SMILES comes first, the peptide text is derived from it. The star is where a group is joined. Boc = CC(C)(C)OC(=O)*
Measured Quantity: TGI

Please review the entries below; each comes with its answer.
INSERT INTO assay_data (compound, measured_quantity, value_observed) VALUES
  ('O=C1CSC2(CC(/C=C/c3cccc(Br)c3)=NN2c2cccc(S(=O)(=O)O)c2)N1c1nc2ccccc2s1 (stereo not drawn)', 'TGI', '> 100 µM'),
  ('COc1ccc(-n2c(-c3ccc(NC(=O)CCCl)cc3)nnc2-c2cc(OC)c(OC)c(OC)c2)cc1', 'TGI', '11.9 µM'),
  ('COC(=O)C/C(C)=C/[C@@H](O)[C@H]1O[C@@H]2CC/C(Cl)=C/C/C=C(/C)[C@H](OC(C)=O)CC(=O)O[C@@H]1C2', 'TGI', '1.32 µM'),
  ('CCOC(=O)c1[nH]c2cccc3c2c1CC(Br)C3=O (stereo not drawn)', 'TGI', '28.1 µM'),
  ('COC(=O)C(Cc1c[nH]c2ccccc12)NC(=O)C(Cc1c[nH]c2ccccc12)NC(=O)C(Cc1c[nH]c2ccccc12)NC(=O)C(Cc1c[nH]c2ccccc12)NC(=O)C(Cc1c[nH]c2ccccc12)NC(=O)OC(C)(C)C (stereo not drawn) (Boc-WWWWW-OMe; configuration not given here)', 'TGI', '> 100 µM'),
  ('O=C(O)CSCC(=O)c1ccccc1', 'TGI', '> 100 µM'),
  ('COc1ccc(/C=C/C(=O)/C=C(/C=C/c2ccc(OC)c(OC)c2)OB(F)F)cc1OC', 'TGI', '9.48 µM'),
  ('c1ccc2c(c1)Sc1ccccc1N2CCCN1c2ccccc2Sc2ccccc21', 'TGI', '> 100 µM'),
  ('CCOC(=O)C(C)c1nc2cc(F)c(N3CCOCC3)cc2[nH]c1=O (stereo not drawn)', 'TGI', '> 100 µM'),
  ('Cc1ccc2c(/C=C/C(=O)c3cc(CN4CCOCC4)c(O)c4nc(C)ccc34)cc(CN3CCOCC3)c(O)c2n1', 'TGI', '3.77 µM');

Ask: Could you tell me which TGI is on file for "O=S(=O)(O)c1cc(S(=O)(=O)O)c2c(N=Nc3ccccc3)c(O)ccc2c1" ?
Result: > 100 µM

Ask: Could you tell me which TGI is on file for [N-]=[N+]=NC1(c2ccccc2)C(=O)c2cccc3c4ccccc4n(c23)C1=O (stereo not drawn) ?
Result: > 100 µM

Ask: Could you tell me which TGI is on file for "CN(O)C(=O)c1ccc(OCc2cccc(Cl)c2)cc1" ?
Result: > 100 µM

Ask: Could you tell me which TGI is on file for "Cc1cc(Cl)ccc1NC(=O)/C(Cc1nc2ccc(C(=O)c3ccccc3)cc2[nH]c1=O)=N/NC(=O)c1ccncc1" ?
Result: > 100 µM

Ask: Could you tell me which TGI is on file for COc1cccc(N2C(=O)CSC2c2c[nH]c3ccccc23)c1 (stereo not drawn) ?
Result: > 100 µM

Ask: Could you tell me which TGI is on file for CC(=O)C(C(=N)C#N)C(=O)Nc1ccccc1 (stereo not drawn) ?
Result: > 100 µM

Ask: Could you tell me which TGI is on file for "N#C[C@]12CC3(CC[C@H]1CC1(C2)OCCO1)OCCO3" ?
Result: > 100 µM

Ask: Could you tell me which TGI is on file for "N#CCN(Cc1ccccc1)[C@H]1CCC[C@]1(O)/C=C/c1ccc2c(c1)OCO2" ?
Result: > 100 µM

====

- System: HOP-62 NSCLC
- Assay Text: NCI tumour cell line growth inhibition, 48 h
Measured Quantity: TGI

Please review the entries below; each comes with its answer.
INSERT INTO measurements (compound, study_target, value_observed) VALUES
  ('NS(=O)(=O)c1ccc(NC(=S)/N=C/c2c(O)c3ccccc3[nH]c2=O)cc1', 'HOP-62 NSCLC', '> 100 µM'),
  ('O=c1[nH]nc(Cc2ccccc2)n1N=C1CCCCC1', 'HOP-62 NSCLC', '> 100 µM'),
  ('Nc1ccc(CCN2CCN(c3cccc(C(F)(F)F)c3)CC2)cc1', 'HOP-62 NSCLC', '> 100 µM'),
  ('O=[N+]([O-])/C(C(Cl)=C(Cl)Cl)=C(\Nc1cccc2cccnc12)Sc1ccccc1', 'HOP-62 NSCLC', '80.7 µM'),
  ('CCCCCCCCCCCCOCCCCCCCCC/C=C/c1ccc2c(c1)OCCOCCOCCOCCO2', 'HOP-62 NSCLC', '51.4 µM'),
  ('O=C(c1ccccc1)c1ccc2cccc(O)c2n1', 'HOP-62 NSCLC', '> 100 µM'),
  ('COC(=O)/C=C/COCC1C2CCC(=O)C21 (configuration not stated)', 'HOP-62 NSCLC', '> 100 µM'),
  ('CCOC(=O)N(C)CCC1CC=CC(=O)C1c1cccc(OC)c1OC (configuration not stated)', 'HOP-62 NSCLC', '> 100 µM'),
  ('O=C(O)C1CCCN1Cc1c[nH]c2ccccc12 (configuration not stated)', 'HOP-62 NSCLC', '> 100 µM'),
  ('O=C(O)CSCC(=O)c1ccccc1', 'HOP-62 NSCLC', '> 100 µM');

Ask: Reported TGI for HOP-62 NSCLC, given "O=[N+]([O-])c1ccc(OCCNc2cccc3ccccc23)cc1" ?
Result: > 100 µM

Ask: Reported TGI for HOP-62 NSCLC, given "COc1ccc(OC)c2sc(N3C(=O)/C(=C/c4ccc(N(C)C)cc4)N=C3c3ccccc3)nc12" ?
Result: > 100 µM

====

- Test system: MDA-MB-231 breast
- Assay Text: NCI tumour cell line growth inhibition, 48 h
Measured TGI values are reported for all entries that follow.

INSERT INTO assay_data (compound, value_observed) VALUES
  ('O=C1c2scc(-c3ccc(F)cc3)c2-n2cccc21', '> 100 µM'),
  ('COc1ccc(-c2c(C#N)c(N)n(C3OCC(O)C(O)C3O)c(=S)c2C#N)cc1 (stereo unspecified)', '> 100 µM'),
  ('COC(=O)/N=[N+](\[O-])C(c1ccc(Cl)cc1)c1ccc(Cl)cc1', '77.1 µM');

Ask: Could you tell me which TGI is on file for [N-]=[N+]=NC1(c2ccccc2)C(=O)c2cccc3c4ccccc4n(c23)C1=O (stereo unspecified) ?
Result: > 100 µM

Ask: Could you tell me which TGI is on file for COc1ccc2c(c1)nc1n2C(c2c(F)cccc2F)SC1 (stereo unspecified) ?
Result: > 100 µM

Ask: Could you tell me which TGI is on file for "Clc1ccc(Nc2ccnc(NCCNc3ccnc4cc(Cl)ccc34)n2)cc1" ?
Result: 3.31 µM

====

- Test system: UO-31 renal
- Assay Text: NCI tumour cell line growth inhibition, 48 h
Measured TGI values are reported for all entries that follow.

INSERT INTO results (compound, measured_quantity, value_observed) VALUES
  ('C[C@@H](Oc1cc(-c2cnn(C3CCNCC3)c2)cnc1N)c1c(Cl)ccc(F)c1Cl', 'TGI', '4.74 µM'),
  ('Cn1cc(-c2nc(-c3c[nH]c4ncccc34)cs2)c2cc(Cl)ccc21', 'TGI', '75.5 µM');

Ask: Could you tell me which TGI is on file for "N.N.NCCCCN.O=C([O-])CC(=O)[O-].O=C([O-])CC(=O)[O-].[Pt+4].[Pt+4]" ?
Result: > 100 µM

Ask: Could you tell me which TGI is on file for "COC(=O)CC[N+]1([O-])CC1" ?
Result: > 100 µM

Ask: Could you tell me which TGI is on file for "COc1cc2c(cc1C)NC(=O)/C2=C\c1cccnc1" ?
Result: 39.5 µM

Ask: Could you tell me which TGI is on file for "CCOC(=O)c1sc2ncn(Cc3cccc(Cl)c3)c(=O)c2c1C" ?
Result: 26.4 µM

Ask: Could you tell me which TGI is on file for "c1ccc(Oc2c3ccccc3nc3ccccc23)cc1" ?
Result: 19.1 µM

Ask: Could you tell me which TGI is on file for "O=C(O)C(Cc1ccccc1-c1ccccc1)C(=O)O" ?
Result: > 100 µM
